Hello, the source for this data is the NTF2 design screens of Basanta et al. (2020), in case you need it.

test: protease stability score; higher = more stable; yeast display proteolysis, trypsin and chymotrypsin;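 note: log10 excess protease needed over predicted unfolded state with 0 meaning unfolded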
quantity measured: protease stability score
Provide a numeric answer; units are not to be included.

Below: 5 sequences and their reported protease stability score.
>  <entry sequence>
DEKDEAVKLLEHLMEALRRGDEDHARSLADPNVRADIGDRDYSGRNKVAQEWIRRATQADHLELRIRDVRVDGNEVTLEAELSMKVNGETHSDTVHFQFEKHNGRVVLVHVQFK

>  <recorded number>
1.56

$$$$
>  <entry sequence>
DETEWREFAEEFIRLFQQGDEDRLRKLIDKNAKIRYGDREVDGRDSIAKQIRDNREQIDRIDLVDMKVRGEHITITIDVDHNGQRRRIVIHINVHNGHIKNVEVDSG

>  <recorded number>
1.02

$$$$
>  <entry sequence>
REEDVEKVIRTLLQAVHEGNPDKIRKYLKPDVEVQYADQKFKGPDEIMKLMRRMVRKGYRVQIKEQHVEGDTATTRADYQMGDKQVTVEVTAEAENGKLKHAEIKMSPQFEEIVKKG

>  <recorded number>
1.49

$$$$
>  <entry sequence>
EESAIERLKEAMKAFDHGDEDEWRQQFDKNARVQIGDKSVRGRDNMAKQIKKEKEKMRVEVKLESVHVHNGHVTADADYKEQKNGRPTSSRFQLHATFKGDKFKNMVWHKDS

>  <recorded number>
-0.422

$$$$
>  <entry sequence>
DEELRKLAEQLVTIFQTGNEHHVQELMDPNAKLQIGDTEFKGREEYVKEVKKRRDEMRFSIKKVKVDAHGDKIDIKIHMTMKHDGKPRDYVVTVHLRVQGDKIKSAHYQDTK

>  <recorded number>
0.155

$$$$

// next item, protease stability score requested
Lookup: Given DEDAKRVANEISKAFDQNDPDKARQLADENAEVQIGDKVLHGRDQATNQLERQREEQNEHVDSVEIDVDGDKLKVRIHFNSHSNGRPRRNTRTYTIVVRNGHLQHLDMKENG , respond with its protease stability score.
Found: -0.246
